experiment: Oral bioavailability in Sprague-Dawley rat at 5 mg/kg by LC/MS/MS analysis; assay type: ADME, organism-based; conditions: in vivo
metric: bioavailability (%)
Entry rule: numbers only, all in %.

Query bioavailability for `Cc1cc(CCC(=O)O)cc(C)c1-c1nc2ccc(C(=O)Nc3ccc4ccccc4n3)cc2[nH]1`
2

----------
experiment: Protein binding in dog plasma at 5 mg/kg, po after 24 hrs; type: ADME, organism-based, Canis lupus familiaris; settings: read-out: PPB (converted)
metric: fraction unbound at 24 h
Response field accepts a number only; no unit should be typed.

Query fraction unbound at 24 h for `COc1ccc(-c2nnc(-c3ccc4nc(-c5c(C)cc(CC(C)(C)C(=O)O)cc5C)[nH]c4c3)o2)cc1.[Na+]`
0.009
